subject.of.test: HLA-DR (DRA1*01:01 / DRB1*04:06), soluble knob-into-hole Fc heterodimer (human)
protocol.notes: ELISA
No end group written: not given here.
parameter.measured: Kd (nM)
Report as a plain number; the unit nM is understood.

Task: Value lookup for Kd; key = KPVSKMRMATPLLMQALPM (also: biotin-labeled) [biotin-labeled human Class II-associated Invariant Chain Peptide (Bio-CLIP)]
Output: 2.63
